Experiment: physchem
Type: physicochemical
Conditions: ethanol, organic solvent or mixture; read-out: solubility in ethanol
readout name: solubility

| compound | recorded value |
| --- | --- |
| CC=CC1C=CC2CC(C)CCC2C1(C)C(O)=C1C(=O)C(CO)N(C)C1=O (stereo not shown) [equisetin] | > 330 mg/mL |

----------
Experiment: physchem
Type: physicochemical
Details: organic solvent or mixture; hexane; insoluble; read-out: solubility in hexane
readout name: solubility

| compound | readout name | recorded value |
| --- | --- | --- |
| CC=CC1C=CC2CC(C)CCC2C1(C)C(O)=C1C(=O)C(CO)N(C)C1=O (stereo not shown) | solubility | < 800 µg/mL |
